# ASSAY_CONDITIONS: in methanol, 302.37 K
REPORTED_ENDPOINT: solubility (mole fraction)
Answers are plain numbers.

Given the entry COc1cnc(Cl)nc1Cl , report its measured solubility (mole fraction).
0.0598

###

# ASSAY_CONDITIONS: in ethyl acetate, 295.6 K
REPORTED_ENDPOINT: solubility (mole fraction)
Answers are plain numbers.

Fill blank: measured solubility (mole fraction) of the molecule COc1cnc(Cl)nc1Cl is ____.
0.288

###

# ASSAY_CONDITIONS: in ethyl acetate, 302.28 K
REPORTED_ENDPOINT: solubility (mole fraction)
One number for each entry.

Which solubility (mole fraction) reading was recorded for the compound COc1cnc(Cl)nc1Cl ?
0.347
